- assay_target: T1, human Bfl-1 a.a. 1-153 (C4S) with C-terminal avi-6his tag (human)
- T1 construct: also called A1/Bfl-1
- T1 chain: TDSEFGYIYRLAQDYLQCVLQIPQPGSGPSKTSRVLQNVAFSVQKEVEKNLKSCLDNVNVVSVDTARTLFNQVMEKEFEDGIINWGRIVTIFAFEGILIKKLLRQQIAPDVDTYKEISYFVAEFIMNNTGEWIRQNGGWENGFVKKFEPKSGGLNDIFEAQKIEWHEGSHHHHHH
- test_method_notes: BLI, biotinylated target on streptavidin sensor, range of analyte concentrations
result_type: pKd
Lab note: report pKd as minus log10 of the concentration in molar units, number only.

Q: Record request: pKd value, item F-ECM04 (designed binder) ADPKKVLDKAKDQAENRVRELKQKLEELYKEARKLDLTQEMRKKLEVAALGAVLAAHGDILNAIMQAKEEADKLKKAGLVNSQQLDELKRRLEELKEEALRKASDYGKEFHLKRRYG
Ans: 8.96

Q: Record request: pKd value, item 10-CDP01 (designed binder, also called B-CDP01) ADPKKVLDKAKDQAENRVRELKQELERLYKEARKLDLTQEMRRKLEWRYIAAMLKAIGDILNAIAQAENEADKLKKAGLVNSQQLDELRRRLEELAKEAARKAHDYGREFQLKLEY
Ans: 6.60

Q: Record request: pKd value, item FINDI (designed binder, also called αBFL1) ADPKKVLDKAKDQAENRVRELKQKLEELYKEARKLDLTQEKRKKLEVATLGAVLAAHGDILNAIMQAKEEADKLKKAGLVNSQQLDELKRRLEELKEEALRKASDYGNEFHLKRRY
Ans: 9.04

Q: Record request: pKd value, item W-CDP03 (designed binder) DPKKVFDEAKDRAENNVRRLKQKLEELYKEARKKDLTQEEREKLKEKYKTAMAAAALAAIGDAFNALLKARKLHKNGQVNEQQLEELARRLQELAKEAFQKAKDYANEFEYKLEY
Ans: 6.40

Q: Record request: pKd value, item MINDI (Mcl-1-inhibiting design acting intracellularly) (designed binder, also called M-CDP04; αMCL1) ADPKKVLDKAKDQAENRVRELKQVLEELYKEARKLDLTQEMRKKLIERYAAAIIRAIGDINNAIYQAKQEAEKLKKAGLVNSQQLDELLRRLDELQKEASRKANEYGREFELKLEY
Ans: 4.52

Q: Record request: pKd value, item 10-ECM01 (designed binder) ADPKKILDKAKDQVENRVRELKQELERLYKEARKLDLTQEMRRKLHVRYIAAMLKAIAAILNAIAQAENEADKLKKAGLVNSQQLDELRRRLEELTEEAAQKAHDYGREFQLKLEYG
Ans: 5.62
